Collected Kd values appear next to each entry.
MEASURED_ON: T1, Human BCMA (human, UniProt Q02223 1-54, limits assumed)
T1 construct: Soluble analyte in SPR; construct not described; also called huBCMA; B-cell maturation antigen
T1 sequence (looked up): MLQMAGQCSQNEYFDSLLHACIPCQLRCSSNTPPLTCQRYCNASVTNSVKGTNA
EXPERIMENT: SPR, IgG immobilised, 37 C
READOUT_KIND: Kd (nM)

- L3.PY/L1.AH/H2.QR (antibody, V domains shown, IgG) VH: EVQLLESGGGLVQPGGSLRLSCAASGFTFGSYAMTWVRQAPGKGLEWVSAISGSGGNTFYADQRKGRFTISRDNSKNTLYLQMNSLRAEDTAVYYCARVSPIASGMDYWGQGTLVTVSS VL: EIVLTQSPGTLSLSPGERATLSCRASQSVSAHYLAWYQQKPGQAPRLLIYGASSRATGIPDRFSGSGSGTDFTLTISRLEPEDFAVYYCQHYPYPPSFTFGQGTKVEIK: 0.58
- L3.PY/L1.PH/H2.QR (antibody, V domains shown, IgG) VH: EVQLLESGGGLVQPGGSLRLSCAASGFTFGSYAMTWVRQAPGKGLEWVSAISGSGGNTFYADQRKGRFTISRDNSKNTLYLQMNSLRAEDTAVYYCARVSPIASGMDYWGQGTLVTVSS VL: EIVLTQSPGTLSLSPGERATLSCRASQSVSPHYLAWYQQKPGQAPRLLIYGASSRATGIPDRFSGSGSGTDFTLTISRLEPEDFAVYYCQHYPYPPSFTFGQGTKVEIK: 0.64
- L3.PY/L3.KF/H3.TAQ (antibody, V domains shown, IgG) VH: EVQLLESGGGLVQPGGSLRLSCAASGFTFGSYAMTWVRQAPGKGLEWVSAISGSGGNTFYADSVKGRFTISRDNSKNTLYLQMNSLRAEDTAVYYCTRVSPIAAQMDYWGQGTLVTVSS VL: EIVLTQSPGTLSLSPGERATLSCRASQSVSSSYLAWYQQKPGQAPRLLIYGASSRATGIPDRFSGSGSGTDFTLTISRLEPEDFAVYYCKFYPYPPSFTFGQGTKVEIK: 0.58

Hello, the source for this data is patent US20160297884A1, in case you need it.
